Assay: In-vivo absorbency (plasma concentrations & pharmacokinetic parameters)
Parameters: species or system SD rat (male)
Conditions: rat, in vivo, iv, 20 mg/kg
observed property: concentration at 20 min (ng/mL)
Dear colleague, please return just the value in ng/mL, with no unit written.

Given item CC(C)(O/N=C(\C(=O)N[C@@H]1C(=O)N2C(C(=O)[O-])=C(C[n+]3ccccc3)CS[C@H]12)c1csc(N)n1)C(=O)O [Ceftazidime, reference compound] , the value recorded as its concentration at 20 min is 26000

----------
Assay: In-vivo absorbency (plasma concentrations & pharmacokinetic parameters)
Design: species or system SD rat (male)
Settings: plasma; 1 min; SD male rat, iv 20 mg/kg; read-out: Plasma Conc.
observed property: concentration at 1 min

In [3]: df
Out[3]:
                                   compound       observed_property  observed_value
0  CCO/N=C(\C(=O)NC1C(=O)N2C(C(=O)[O-])=C(CSc3nc(N)cc(N)[n+]3N)CSC12)c1csc(N)n1 (stereo not drawn)  concentration at 1 min       149 µg/mL
1  C[n+]1c(N)cc(N)nc1SCC1=C(C(=O)[O-])N2C(=O)C(NC(=O)/C(=N\OC(C)(C)C(=O)O)c3csc(N)n3)[C@H]2SC1 (stereo partly drawn)  concentration at 1 min       152 µg/mL

Given item CC[n+]1c(N)cc(N)nc1SCC1=C(C(=O)[O-])N2C(=O)C(NC(=O)/C(=N\OC(C)(C)C(=O)O)c3csc(N)n3)C2SC1 (stereo not drawn) , the value recorded as its concentration at 1 min is 55 µg/mL

----------
Test system: Citrobacter freundii ATCC 8090
Experiment: Antibacterial activity, MIC
Type: cell-based
Settings: ATCC8090, ATCC 8090, agar two-fold dilution, 37° C., 20 hours, read-out: MIC
observed property: MIC (µg/mL)
Dear colleague, please return just the value in µg/mL, with no unit written.

>>> df
                                   molecule  observed_property  measurement_unit  observed_value
0  CC(C)(O/N=C(\C(=O)NC1C(=O)N2C(C(=O)[O-])=C(CSc3nc(N)cc(N)[n+]3-c3ccc(O)cc3)CSC12)c1csc(N)n1)C(=O)O (stereo not drawn)                MIC             µg/mL            0.25
1  CCO/N=C(\C(=O)NC1C(=O)N2C(C(=O)[O-])=C(CSc3nc(N)cc(N)[n+]3-c3ccc(Cl)cc3)CSC12)c1csc(N)n1 (stereo not drawn)                MIC             µg/mL               1

# next molecule below
Given item CC(C)(O/N=C(\C(=O)NC1C(=O)N2C(C(=O)[O-])=C(CSc3nc(N)cc(N)[n+]3-c3ccccc3)CSC12)c1csc(N)n1)C(=O)O (stereo not drawn) , the value recorded as its MIC is 0.25

----------
# maps each entry to its MIC
Tested on: Citrobacter freundii ATCC 8090
Assay: Antibacterial activity, MIC
Type: cell-based
Settings: ATCC8090, ATCC 8090, agar two-fold dilution, 37° C., 20 hours, read-out: MIC
Dear colleague, please return just the value in µg/mL, with no unit written.

Before answering, review these 6 worked examples.
compound	observed property	observed value
C=CC[n+]1c(N)cc(N)nc1SCC1=C(C(=O)[O-])N2C(=O)C(NC(=O)/C(=N\OC(C)(C)C(=O)O)c3csc(N)n3)C2SC1 (stereo not shown) [Compound I-3]	MIC	0.13
C[n+]1c(N)cc(N)nc1SCC1=C(C(=O)[O-])N2C(=O)C(NC(=O)/C(=N\OCC(=O)O)c3csc(N)n3)C2SC1 (stereo not shown) [Compound I-7]	MIC	0.031
CCC[n+]1c(N)cc(N)nc1SCC1=C(C(=O)[O-])N2C(=O)C(NC(=O)/C(=N\OC(C)C(=O)O)c3csc(N)n3)C2SC1 (stereo not shown) [Compound I-45]	MIC	0.063
CCc1c(N)nc(SCC2=C(C(=O)[O-])N3C(=O)C(NC(=O)/C(=N\OC(C)(C)C(=O)O)c4csc(N)n4)C3SC2)[n+](C)c1N (stereo not shown) [Compound I-31]	MIC	0.13
CO/N=C(\C(=O)NC1C(=O)N2C(C(=O)[O-])=C(CSc3nc(N)cc(N)[n+]3N)CSC12)c1csc(N)n1 (stereo not shown) [Compound I-19]	MIC	0.13
C#CCO/N=C(\C(=O)NC1C(=O)N2C(C(=O)[O-])=C(CSc3nc(N)cc(N)[n+]3CC)CSC12)c1csc(N)n1 (stereo not shown) [Compound I-47]	MIC	0.13

Given item CC(O/N=C(\C(=O)NC1C(=O)N2C(C(=O)[O-])=C(CSc3nc(N)cc(N)[n+]3N)CSC12)c1csc(N)n1)C(=O)O (stereo not shown) [Compound I-14] , the value recorded as its MIC is 0.031

Given item CC[n+]1c(N)cc(N)nc1SCC1=C(C(=O)[O-])N2C(=O)C(NC(=O)/C(=N\OC(C)(C)C(=O)O)c3csc(N)n3)C2SC1 (stereo not shown) [Compound I-2] , the value recorded as its MIC is 0.13

Given item C#CCO/N=C(\C(=O)NC1C(=O)N2C(C(=O)[O-])=C(CSc3nc(N)cc(N)[n+]3C)CSC12)c1csc(N)n1 (stereo not shown) [Compound I-46] , the value recorded as its MIC is 0.063

Given item C=CCO/N=C(\C(=O)NC1C(=O)N2C(C(=O)[O-])=C(CSc3nc(N)cc(N)[n+]3CC)CSC12)c1csc(N)n1 (stereo not shown) [Compound I-50] , the value recorded as its MIC is 0.13

Given item CCC[n+]1c(N)cc(N)nc1SCC1=C(C(=O)[O-])N2C(=O)C(NC(=O)/C(=N\OCC)c3nsc(N)n3)C2SC1 (stereo not shown) [Compound I-22] , the value recorded as its MIC is 0.25

Given item CC(C)(O/N=C(\C(=O)NC1C(=O)N2C(C(=O)[O-])=C(CSc3nc(N)cc(N)[n+]3N)CS[C@H]12)c1csc(N)n1)C(=O)O (stereo partly shown) [Compound I-15] , the value recorded as its MIC is 0.063

Given item C=CC[n+]1c(N)cc(N)nc1SCC1=C(C(=O)[O-])N2C(=O)C(NC(=O)/C(=N\OCC(=O)O)c3csc(N)n3)C2SC1 (stereo not shown) [Compound I-9] , the value recorded as its MIC is 0.063

----------
# maps each entry to its MIC
Test system: Bacillus cereus ATCC 11778
Assay: Antibacterial activity, MIC
Type: cell-based
Conditions: ATCC11778, ATCC 11778, agar two-fold dilution, 37° C., 20 hours, read-out: MIC
Returns: string containing the number followed by the unit.

Before answering, review these 2 worked examples.
compound	observed value
Cc1c(N)nc(SCC2=C(C(=O)[O-])N3C(=O)C(NC(=O)/C(=N\OC(C)(C)C(=O)O)c4csc(N)n4)C3SC2)[n+](N)c1N (stereo not drawn) [Compound I-34]	128 µg/mL
CC(C)(O/N=C(\C(=O)NC1C(=O)N2C(C(=O)[O-])=C(CSc3nc(N)cc(N)[n+]3-c3ccccc3)CSC12)c1csc(N)n1)C(=O)O (stereo not drawn) [Compound I-35]	16 µg/mL

# next compound below
Entry C[n+]1c(N)cc(N)nc1SCC1=C(C(=O)[O-])N2C(=O)C(NC(=O)/C(=N\OC(C)(C)C(=O)O)c3csc(N)n3)[C@H]2SC1 (stereo partly drawn) [Compound I-1] : MIC on Bacillus cereus ATCC 11778 = 64 µg/mL

----------
Tested on: Salmonella typhimurium ATCC 14028
Assay: Antibacterial activity, MIC
Assay type: cell-based
Details: Salmonella enterica; ATCC 14028; agar two-fold dilution, 37° C., 20 hours; read-out: MIC
# maps each entry to its MIC
Dear colleague, please return just the value in µg/mL, with no unit written.

Before answering, review these 5 worked examples.
compound	MIC / µg/mL
CCO/N=C(\C(=O)NC1C(=O)N2C(C(=O)[O-])=C(CSc3nc(N)cc(N)[n+]3C)CSC12)c1csc(N)n1 (stereo not drawn) [Compound I-11]	0.25
CC(C)(O/N=C(\C(=O)NC1C(=O)N2C(C(=O)[O-])=C(CSc3nc(N)cc(N)[n+]3-c3ccccc3)CSC12)c1csc(N)n1)C(=O)O (stereo not drawn) [Compound I-35]	0.5
C[n+]1c(N)cc(N)nc1SCC1=C(C(=O)[O-])N2C(=O)C(NC(=O)/C(=N\OC(C)(C)C(=O)O)c3csc(N)n3)[C@H]2SC1 (stereo partly drawn) [Compound I-1]	0.13
CC(C)(O/N=C(\C(=O)NC1C(=O)N2C(C(=O)[O-])=C(CSc3nc(N)cc(N)[n+]3C3CC3)CSC12)c1csc(N)n1)C(=O)O (stereo not drawn) [Compound I-48]	0.5
C=CCO/N=C(\C(=O)NC1C(=O)N2C(C(=O)[O-])=C(CSc3nc(N)cc(N)[n+]3CC)CSC12)c1csc(N)n1 (stereo not drawn) [Compound I-50]	0.5

# next compound below
Given item C=CCO/N=C(\C(=O)NC1C(=O)N2C(C(=O)[O-])=C(CSc3nc(N)cc(N)[n+]3C)CSC12)c1csc(N)n1 (stereo not drawn) [Compound I-49] , the value recorded as its MIC is 1

These data points were gathered from patent US5202315A.
